From: the nanobody polyreactivity screen of Harvey et al. (2022)

Assay: yeast display, Sf9 membrane polyspecificity reagent, FACS + sequencing; frameworks hold sequencing errors
Measurement Kind: polyreactivity (PSR sort gate)

QVQLVESGGGLVQAGGSLRLSCAASGRTFRLYAMGWYRHAPGKERELVAAISRRGGSTYYADSVKGRFTISRDNAKNTVYLQMNSLKPEDTAVYYCAKGLGSGQEIYGYDYWGQGTQVTVSS
high polyreactivity
QVQLVESGGGLVQAGGSLRLSCAASGRTFKFYAMGWYRQAPGKERELVAGIGSGGRTYYADSVKGRFTISRYNAKNTVYLHMNSLKPEDTAVYYCAARQYGPRYTYYYWGQGTQVTVSS
high polyreactivity

* * *

Assay: yeast display, Sf9 membrane polyspecificity reagent, FACS + sequencing; frameworks hold sequencing errors
Measurement Kind: polyreactivity (PSR sort gate)

Study these solved cases before continuing.
QVQLQESGGGLVKAGGSLRLSCAASGNISNHNDMGWYRQAPGKEREFVAGITAGGITNYADSVKGRFTISRDNAKNTVYLLMKRLKPEDTAVYYCAAYPDYAKSYGFWGQGTQATVSS
low polyreactivity
QVQLVESGGGLVQAGGSLRLICAASGRTFKYYAMGWYRPAPGKERELVATISFRGGSTYYADSVKGRFTISRDNAKNTVYLQMNSLKPEDTSVYYCAATTPYYTPRRRNDYWGQGTQVTVSS
high polyreactivity
QVQLVESGGGLVQAGGSLRLSCAASGNGLGWYRQAPGKERELVAAITRRGGSTYYADSVKGRFTISRDNAKNTVYLQMNSLKPEDTAVYYCAADNPSYNLWYGYWGQGTQVTVSS
low polyreactivity
QVQLVESGGVLVQAGGSLRLSCAASGLNLAPNAMGWYRQAPGKEMELVAAITRSGGDTYYADSVKGRFTISRENAKNTVYLQMNSLKPEDTAVYYCAKARPGFLYDHWGQGTQVTVSS
high polyreactivity
QVQLVDSGGGLVQAGGSLRLSCAASGSTFRGYDMGWYRQAPGKESELVAAITGSGTSTYYADSVKVRFTISRDNAKNTVYLQMNSLKPEDTAVYYCAARSRRPAERMYYWGQGTQVTVSS
high polyreactivity

Please supply polyreactivity (PSR sort gate) for each of the following items, keeping them in order.
1. QVQLVESGGGIVQAGGSLRLSCAASGRIFLTNAMGWYRQAPGKERELVADISRGGSTYPDSVKGRFTISRDNAKNTVYLQMNSLKPEDTAVYYCAADEYSPGDSRTRYDYWGQGTQVTVSS
2. QVQRVESGGVLVQAGGSLRLSCAASGGIFYYYTMGWYRQAPGKERELVAAINWSGGSTYYADSVKGRFTISRDNAKNTVYLQMNSLKPEDTAVYYCNAVYRHPVTYGYWGQGTQVTVSS
3. QVQLVESGGGLVQAGGSLRLSCAASGSTFPFNAMGWYRQAPGKERELVAVITYSGGSTYYADSVKGRFTISRDNAKNTVYLHMNSLKPVVTAVYYCAADVYYWGSTYYYWGLGTQVTVSS
4. PVQLVDSGGGLVQAGGSLRLSCGASGRTFRKYGIGWYRQAAGKERELVAGISRSGGTTYYADTVKGRFTISRDTAKNTVYLQMNSLKPEDTAVYYCAKRTGPSGEDYWGQGTQVTVSS
5. QVQLVESGGGLVQAGGSLRVSCAASGYTFLRYAMGWYRQAPGKERELVAAISWSTGSTYYADSVKGRFTISRDNAKNTVYLQMNSLKPEDTAVYYCAAAGRHSGGRFYYWGQGTQVTVSS

low polyreactivity
high polyreactivity
high polyreactivity
high polyreactivity
high polyreactivity

Please supply polyreactivity (PSR sort gate) for each of the following items, keeping them in order.
1. QVQLVESGGGLVQAGGSLRLSCAASGFTLIHYAMGWYRQATGKERELVAGITTSGGSTYYADSVKGRFTFSRDNAKNTVYLQMTSLKPEDTAVYYCNRLTRRWYSLRSYDYWGQGTQVTVSS
2. QVQLVESGRGLVQAGGSLRLSFAASGITFGPNEMGWYRQAPGKERELVAAISKSGGTTYYADSVKGRFTISRDNAKNTDYLQMNSLKPEDTAVYYCAARCYPYYASFRYDYWGQGTQVTVSS
3. QVQLVESGGGLVQAGGSLRLSCAASGRIFGYYAMGWSRQAPGKERELVASIRRGTRTNYADSVKGRFTISRDNAKNTVYLQMNSLKPEDTAVYYCAATRFQFTTTPWYDYWGQGTHVTVSS

1: high polyreactivity; 2: high polyreactivity; 3: high polyreactivity

Please supply polyreactivity (PSR sort gate) for each of the following items, keeping them in order.
1. QVQLVESGGGLVQAGGSLRLSCAPSGRTYTVYTMGWYRQAPGKERELVAVISTGGRTYYADSVKGRFTISRDNAKNTVYLQMNSLKPEDTAVYYCAAKFTREYYWGQGTEVTVSS
2. QVQLVESGGGLVQAGGSLRLSCAASGSIFGDYVMGWYRQAPGKERELVAAITSATSTYYADSVKGRFTISRDNAKNTVYLQINSLKPEDTAVYYCNADATYPLWPNIWYDYDYWGQGTQVTVSS
3. QVQLVDSGGGLVQAGGSHRLSCAASGSTFRRNAMGWYRQAPGKERELVAAITRGGSTNYADSVKGRFTISRDNAKNTVYLQMNSLNPEDTAVYYCARVYLGAYRERYVYPYDYWGQGTQVTVSS
4. QVQLVESGGGLVQAGGSLRLSCAASGSIFFWNDMGWYRQAPGTERELVAAISWSGGSTSYADSVKGRFTISRDNAKNTVYLQMNSLKPEDTAVYYCAADYYYRTLYGYIGMDYWGQGTQVTVSS
5. QVQLVKSGGGLVQAGGSLRLSCAASGRIFVGYVMGWYIQAPGKARELVAAIDSGRRTNYADSVKGRFTISRDNAKNTVYLQINSLKPEDTAVYYCNREAAHGSLRWTEMEYWGQGTQVTVSS
6. QGQLVESGGGLVQAGGSLRLSCPASGRIFNTYAMGWYRQAPGKERELVAAINWSGGRTYYADSVKGRFTISRDNAKNTVYLQMNSLKPEDSAVYYCKARGRRRVPEFDYWGQGSQVTVSS
7. QVQLVESGGGLVQAGGSLRLICAASGSTFNVYAMGWYIPAPGKERELVASIRTSGTRTYYADSVKGRFTISRDNAKNNVYLQMNSLKPEDTAVYYCNARYYSNLRRHGGYWGQGTQVTVSS
8. QVQLVESGGGLVQAGGSLRLSCAASGSIFSQKAMVWYRQAPGKERELVASISTGDSSTYADSVKGRFTISRDNAKNTVYLQMNSLKREDTAVYYCNAYRYNALPWRYVGYDYWGQGTQVTVSS

1: high polyreactivity; 2: low polyreactivity; 3: high polyreactivity; 4: low polyreactivity; 5: low polyreactivity; 6: high polyreactivity; 7: high polyreactivity; 8: low polyreactivity
